System: C2C12 Cells
Test: Glucose utilization in cultured C2C12 cells (myotubes)
Type: cell-based, mouse
Details: glucose concentration in medium relative to untreated cells; 5 μM peptide, 22 h
MEASUREMENT TYPE: Percent of Control Activity (%)
// units = %; emit number, no label

Q: Endpoint output: Percent of Control Activity of 106 (MPTNLPTLNST) [compound 106] . Value?
Result: 101

Q: # get_value(readout='Percent of Control Activity', item= 56 (MKNHRCISTT) [compound 56] )
Result: 104

Q: Quick one: Percent of Control Activity for 11 (MAVVDGWVNTWVVPKSASPWKN) [compound 11] ?
Result: 96

Q: Which Percent of Control Activity is listed for 183 (MMKVDATMDFT) [compound 183] ?
Result: 101

Q: Requested field: Percent of Control Activity. Item: 53 (MIYVSSDVGDWWKGGWGVWWVVHG) [compound 53]
Result: 101

Q: Fill in: Percent of Control Activity of 65 (MLKPETSSDSPSA) [compound 65] is ___
Result: 99

Q: For the substance 131 (MTELLTPNWTNLSPY) [compound 131] , what Percent of Control Activity is on record?
Result: 107

Q: Item 26 (MGACQGGSDESN) [compound 26] has what recorded Percent of Control Activity?
Result: 99

Q: Given 100 (MPIIRRMSWSP) [compound 100] , state its recorded Percent of Control Activity.
Result: 102

This collection of values is drawn from patent US20220332774A1.
